# Target entity: T1, human CD71 extracellular domain (human, UniProt P02786 89-760, biotinylated)
# T1 construct: also called hCD71; CD71-ECD
# T1 sequence (P02786 89-760): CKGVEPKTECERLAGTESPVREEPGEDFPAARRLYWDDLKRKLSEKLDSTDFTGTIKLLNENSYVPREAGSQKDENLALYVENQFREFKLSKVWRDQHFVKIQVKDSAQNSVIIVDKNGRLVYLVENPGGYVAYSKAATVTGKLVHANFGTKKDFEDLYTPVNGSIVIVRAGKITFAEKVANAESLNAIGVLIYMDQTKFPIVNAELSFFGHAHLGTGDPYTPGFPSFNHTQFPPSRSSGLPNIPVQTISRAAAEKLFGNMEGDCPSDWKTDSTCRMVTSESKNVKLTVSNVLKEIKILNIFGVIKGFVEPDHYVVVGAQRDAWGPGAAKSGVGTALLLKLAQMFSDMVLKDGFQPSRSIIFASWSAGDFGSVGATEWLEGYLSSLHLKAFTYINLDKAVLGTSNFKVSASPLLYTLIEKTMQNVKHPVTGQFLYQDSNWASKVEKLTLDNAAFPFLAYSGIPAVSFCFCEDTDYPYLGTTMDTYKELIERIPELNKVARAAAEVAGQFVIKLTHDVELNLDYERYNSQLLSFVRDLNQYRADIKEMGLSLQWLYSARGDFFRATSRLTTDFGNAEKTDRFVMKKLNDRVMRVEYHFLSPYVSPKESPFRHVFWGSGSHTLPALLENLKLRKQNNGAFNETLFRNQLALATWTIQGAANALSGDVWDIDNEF
# Measurement notes: primary ELISA; further: test concentration or dose not given here
Endpoint: RLU (RLU)
Give bare numbers, in RLU.

Known results for binders:
[[record]]
binder = "CD71-binding FN3 domain of SEQ ID NO: 525 (designed binder) MLPAPKNLVVSRVTEDSARLSWTAPDAAFDSFFIGYLEPQPPGEAIALYVPGSERSYDLTGLKPGTEYNVTIQGVKGGFPSEPLVATFTT"
result_units = "RLU"
value_reported = "6.02e+06"

[[record]]
binder = "CD71-binding FN3 domain of SEQ ID NO: 509 (designed binder) MLPAPKNLVVSRVTEDSARLSWTAPDAAFDSFEIGYWENAYKGEAIVLTVPGSERSYDLTGLKPGTEYEVFIGGVKGGVWSVPLSAIFTT"
result_units = "RLU"
value_reported = "1.74e+06"

[[record]]
binder = "CD71-binding FN3 domain of SEQ ID NO: 477 (designed binder) MLPAPKNLVVSRVTEDSARLSWTAPDAAFDSFEIAYFETCRTGEAIVLTVPGSERSYDLTGLKPGTEYGVSIYGVKGGAHSGPLSAIFTT"
result_units = "RLU"
value_reported = "1.88e+06"

[[record]]
binder = "CD71-binding FN3 domain of SEQ ID NO: 489 (designed binder) MLAPKNLVVSRVTEDSARLSWTAPDAAFDSFFIGYLEPQPPGEAISLLVPGSERSYDLTGLKPGTEYNVTIQGVKGGFPSSPLLAGFTT"
result_units = "RLU"
value_reported = "2.81e+06"

[[record]]
binder = "CD71-binding FN3 domain of SEQ ID NO: 500 (designed binder) MLPAPKNLVVSRVTEDSARLSWTAPDAAFDSFFIGYLEPQPPGEAIDLLVPGSERSYDLTGLKPGTEYNVTIQGVKGGFPSMPLSAIFTT"
result_units = "RLU"
value_reported = "2.95e+06"


Okay, here is my list. What is RLU for each of these?
1. CD71-binding FN3 domain of SEQ ID NO: 517 (designed binder) MLPAPKNLVVSRVTEDSARLSWTAPDAAFDSFFIGYLEPQPPGEAIALVVPGSERSYDLTGLKPGTEYNVTIQGVKGGFPSMPLFAYFTT
2. CD71-binding FN3 domain of SEQ ID NO: 499 (designed binder) MLPAPKNLVVSRVTEDSARLSWTAPDAAFDSFFIGYLEPQPPGEAISLYVPGSERSYDLTGLKPGTEYNVTIQGVKGGFPSSPLFADFTT

Response:
["3.12e+06", "2.78e+06"]
